- assay_target: CYP1A1 (Homo sapiens, UniProt P04798)
- Construct: expressed in transfected cells
- Sequence (P04798 whole entry): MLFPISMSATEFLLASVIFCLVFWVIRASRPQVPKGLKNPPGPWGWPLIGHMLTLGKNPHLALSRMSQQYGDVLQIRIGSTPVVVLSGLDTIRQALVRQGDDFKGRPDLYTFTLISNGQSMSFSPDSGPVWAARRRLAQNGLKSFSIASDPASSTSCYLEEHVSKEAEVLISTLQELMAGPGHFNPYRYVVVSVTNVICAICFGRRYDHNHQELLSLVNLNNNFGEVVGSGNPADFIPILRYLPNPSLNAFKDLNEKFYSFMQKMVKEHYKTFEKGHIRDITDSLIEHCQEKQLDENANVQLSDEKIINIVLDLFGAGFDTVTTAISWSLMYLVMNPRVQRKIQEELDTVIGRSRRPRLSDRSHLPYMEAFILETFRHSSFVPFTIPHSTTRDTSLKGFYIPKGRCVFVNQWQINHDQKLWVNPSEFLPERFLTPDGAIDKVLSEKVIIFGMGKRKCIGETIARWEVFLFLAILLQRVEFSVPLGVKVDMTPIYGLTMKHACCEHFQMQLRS
- procedure_details: EROD assay in CYP1A1 counter-screen cell line
- Format: cell-based
- setup_conditions: Table 3; read-out: IC50 1A1
pIC50: −log10 of the molar value.
attribute_measured: pIC50

- chem_smiles: "N#CCOc1ccc(-c2nc(OCCCN)c3ccccc3n2)cc1"
  comparison_operator: "="
  experimental_result: 5.67
- chem_smiles: "N#CCOc1nc(-c2ccc(Cl)cc2)nc2ccccc12"
  comparison_operator: "="
  experimental_result: 6.90
- chem_smiles: "COc1ccc(-c2nc3ccccc3c(=O)n2CC#N)c(OC)c1"
  comparison_operator: "<"
  experimental_result: 5.00
- chem_smiles: "N#CCOc1nc(-c2cccc(C(F)(F)F)c2)nc2ccccc12"
  comparison_operator: "="
  experimental_result: 7.30
- chem_smiles: "COc1cc(-c2nc(OCC#N)c3ccccc3n2)ccc1OCC#N"
  comparison_operator: "="
  experimental_result: 5.76
- chem_smiles: "O=c1[nH]c(-c2ccc(Cl)cc2)nc2ccccc12"
  comparison_operator: "="
  experimental_result: 7.07
- chem_smiles: "COc1ccc(/C=C/c2cnccn2)c(OC)c1"
  comparison_operator: "="
  experimental_result: 5.59
- chem_smiles: "N#CCOc1ccc(-c2nc3ccccc3c(=O)[nH]2)cc1OCC#N"
  comparison_operator: "="
  experimental_result: 5.46
- chem_smiles: "N#CCOc1ccc(-c2nc(OCC#N)c3ccccc3n2)cc1"
  comparison_operator: "="
  experimental_result: 5.44
- chem_smiles: "COc1nc(-c2ccc(OCC#N)cc2)nc2ccccc12"
  comparison_operator: "="
  experimental_result: 5.61
- chem_smiles: "N#CCOc1nc(-c2ccc(F)c(C(F)(F)F)c2)nc2ccccc12"
  comparison_operator: "="
  experimental_result: 6.60
- chem_smiles: "COc1ccc(/C=C/c2cc[n+](C)cn2)c(OC)c1.[I-]"
  comparison_operator: "<"
  experimental_result: 5.00
- chem_smiles: "COc1cc(OC)c(/C=C/c2ccncn2)c(OC)c1"
  comparison_operator: "<"
  experimental_result: 5.00
- chem_smiles: "COc1ccc(/C=C/C(=O)c2cc(OC)c(OC)c(OC)c2)c(OC)c1"
  comparison_operator: "="
  experimental_result: 5.28
- chem_smiles: "COc1cc(/C=C/c2ccncn2)cc(OC)c1"
  comparison_operator: "<"
  experimental_result: 5.00
- chem_smiles: "COc1ccc(-c2nc(OC)c3ccccc3n2)cc1"
  comparison_operator: "="
  experimental_result: 5.59
- chem_smiles: "COc1ccc(-c2nc(OCC#N)c3ccccc3n2)cc1"
  comparison_operator: "="
  experimental_result: 5.48
- chem_smiles: "O=c1[nH]c(-c2ccc(F)c(C(F)(F)F)c2)nc2ccccc12"
  comparison_operator: "="
  experimental_result: 5.64
- chem_smiles: "N#CCOc1nc(-c2ccc(F)cc2)nc2ccccc12"
  comparison_operator: "="
  experimental_result: 7.82
- chem_smiles: "N#CCOc1ccc(-c2nc(OCCCCCCBr)c3ccccc3n2)cc1"
  comparison_operator: "="
  experimental_result: 5.71
- chem_smiles: "COc1cc(C(=O)/C=C/c2ccc3ccccc3n2)cc(OC)c1OC"
  comparison_operator: "="
  experimental_result: 5.52
- chem_smiles: "N#CCOc1ccc(-c2nc3ccccc3[nH]2)cc1"
  comparison_operator: "<"
  experimental_result: 5.00
- chem_smiles: "Oc1nc(-c2ccc(F)cc2)nc2ccccc12"
  comparison_operator: "="
  experimental_result: 5.41
